# test-protocol: Mouse PK studies after oral and IV dosing
# Type: in vivo
# condition-summary: PO 3 mg/kg vs IV 1 mg/kg
quantity-name: F
State the value, then name its unit.

Completed entries (count: 2):
compound	F
C[C@H]1CC2(CCN(c3cnc(C(=O)N4CCN(CC5CN(c6cc7c(cc6F)C(=O)N(C6CCC(=O)NC6=O)C7=O)C5)CC4)cn3)CC2)CN1c1ccc(C#N)c(Cl)c1 (stereo partly drawn)	31%
C[C@H]1CC2(CCN(c3ccc(C(=O)N4CCC(N5CCN(c6ccc7c(c6)C(=O)N(C6CCC(=O)NC6=O)C7=O)CC5)CC4)nn3)CC2)CN1c1ccc(C#N)c(Cl)c1 (stereo partly drawn)	29%

Requested field: F. Item: C[C@H]1CC2(CCN(c3ccc(C(=O)N4CCC(N5CCN(c6cc7c(cc6F)C(=O)N(C6CCC(=O)NC6=O)C7=O)CC5)CC4)nn3)CC2)CN1c1ccc(C#N)c(Cl)c1 (stereo partly drawn)
60%
